Recorded EC50 for the following compounds
biological target: NMDA receptor glycine site, rat cortical membranes (Rattus norvegicus (Rat), UniProt P35439); assay: [3H] MK-801 binding assay (potentiation of [3H]MK-801 binding); settings: Table 4, rat cortex; read-out: MK-801 Glycine Site Binding Assay: Rat Cortex EC50
I only need the number, in nM, no unit after it.

[
  {
    "compound": "C[C@@H](O)[C@@H](C(=O)NCc1ncno1)N1CC2(CCCN2C(=O)OC(C)(C)C)C1=O (some centres unmarked)",
    "EC50 [nM]": 0.0613
  },
  {
    "compound": "C[C@@H](O)[C@@H](C(N)=O)N1CC2(CCCN2C(=O)OC(C)(C)C)C1=O (some centres unmarked)",
    "EC50 [nM]": 20
  },
  {
    "compound": "C[C@@H](O)[C@@H](C(=O)NCc1ccccc1)N1CC2(CCCN2C(=O)OC(C)(C)C)C1=O (some centres unmarked)",
    "EC50 [nM]": 0.00119
  },
  {
    "compound": "CC1CCC2(N1)C(=O)N([C@H](C(=O)N1CCCC1)[C@@H](C)O)C2C (some centres unmarked)",
    "EC50 [nM]": 3.31
  }
]

Next compound, EC50 to be filled in.
Give the measured EC50 of CC1CCC2(CN([C@H](C(N)=O)[C@@H](C)O)C2=O)N1C(=O)OC(C)(C)C (some centres unmarked) . 18.9

###

Recorded EC50 for the following molecules
molecular target: NMDA receptor glycine site, rat cortical membranes (Rattus norvegicus (Rat), UniProt P35439); test: [3H] MK-801 binding assay (potentiation of [3H]MK-801 binding); conditions: Table 3; read-out: [3H] MK-801 binding assay: EC50
I only need the number, in nM, no unit after it.

[
  {
    "molecule": "CC(=O)O[C@H](C)[C@@H](C(=O)N1CCCC1)N1CC2(CCCN2)C1=O (stereo partly drawn)",
    "assay-readout": "EC50",
    "measured-result": 0.00349
  },
  {
    "molecule": "C[C@@H](O)[C@@H](C(N)=O)N1CC2(CCCN2)C1=O (stereo partly drawn)",
    "assay-readout": "EC50",
    "measured-result": 54.3
  }
]

Next molecule, EC50 to be filled in.
Give the measured EC50 of CC(N)C(C(N)=O)N1CC2(CCCN2)C1=O (stereo not drawn) . 11
